This listing pairs molecules with measured Replicate 2.
Target: PmSiaT (Proteus mirabilis)
Construct: made in house
Sequence (B4EZY7 1-496): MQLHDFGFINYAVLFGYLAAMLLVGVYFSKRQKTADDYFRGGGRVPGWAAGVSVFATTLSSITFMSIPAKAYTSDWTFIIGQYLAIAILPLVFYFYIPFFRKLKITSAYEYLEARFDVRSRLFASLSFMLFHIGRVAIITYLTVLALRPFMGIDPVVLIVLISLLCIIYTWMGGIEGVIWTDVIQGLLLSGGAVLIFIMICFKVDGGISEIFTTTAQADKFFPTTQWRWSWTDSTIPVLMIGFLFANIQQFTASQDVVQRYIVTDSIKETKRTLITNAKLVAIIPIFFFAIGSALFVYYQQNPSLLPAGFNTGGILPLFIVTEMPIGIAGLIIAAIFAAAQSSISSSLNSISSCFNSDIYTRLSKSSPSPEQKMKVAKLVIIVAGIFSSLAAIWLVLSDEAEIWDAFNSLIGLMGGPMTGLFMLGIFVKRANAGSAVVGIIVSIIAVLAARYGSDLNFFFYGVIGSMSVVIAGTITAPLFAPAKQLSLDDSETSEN
Experiment: nanoDSF thermal shift assay, PmSiaT
Format: binding
Conditions: PmSiaT Tm, experiment 2, second capillary, 1.25 mM
// unit must come after the numeric part

# molecule, Replicate 2
data = [
    ("O=C(Cc1ccccc1)NC1C(O)CC(O)(C(=O)O)OC1C(O)C(O)CO (stereo not drawn) [Compound 6e]", "46.0 °C"),
]

Ask | Record request: Replicate 2 value, item CC(=O)NC1C(OCc2ccc(F)cc2)CC(O)(C(=O)O)OC1C(O)C(O)CO (stereo not drawn) [Compound 3b]
Reply | 53.4 °C

Ask | Record request: Replicate 2 value, item CC(=O)NC1C(O)CC(O)(C(=O)O)OC1C(O)C(C)O (stereo not drawn) [Compound 8f]
Reply | 45.9 °C

Ask | Record request: Replicate 2 value, item CC(C)(C)C(=O)NC1C(O)CC(O)(C(=O)O)OC1C(O)C(O)CO (stereo not drawn) [Compound 6c]
Reply | 46.7 °C

Ask | Record request: Replicate 2 value, item CCC(=O)NC1C(O)CC(O)(C(=O)O)OC1C(O)C(O)CO (stereo not drawn) [Compound 6a]
Reply | 46.8 °C

Ask | Record request: Replicate 2 value, item CC(=O)NC1C(OCc2cc(F)cc(F)c2)CC(O)(C(=O)O)OC1C(O)C(O)CO (stereo not drawn) [Compound 3e]
Reply | 55.2 °C

Ask | Record request: Replicate 2 value, item CCSCC(O)C(O)C1OC(O)(C(=O)O)CC(O)C1NC(C)=O (stereo not drawn) [Compound 8b]
Reply | 46.0 °C

Ask | Record request: Replicate 2 value, item CC(=O)NC1C(OCc2ccc(Br)cc2)CC(O)(C(=O)O)OC1C(O)C(O)CO (stereo not drawn) [Compound 3c]
Reply | 56.0 °C

Ask | Record request: Replicate 2 value, item O=C(CF)NC1C(O)CC(O)(C(=O)O)OC1C(O)C(O)CO (stereo not drawn) [Compound 6f]
Reply | 47.6 °C

====

Biological target: PmSiaT (Proteus mirabilis)
Construct: made in house
Assay: nanoDSF thermal shift assay, PmSiaT
Assay type: binding
Details: PmSiaT Tm, average of experiment 3
quantity_name: Average 3 (°C)
Note: unit °C is implicit; provide only the numeric part.

Ask | Record request: Average 3 value, item O=C(CCl)NC1C(O)CC(O)(C(=O)O)OC1C(O)C(O)CO (centres unmarked) [Compound 6g]
Reply | 49.5

Ask | Record request: Average 3 value, item CC(=O)NC1C(O)CC(O)(C(=O)O)OC1C(O)C(C)O (centres unmarked) [Compound 8f]
Reply | 45.9

Ask | Record request: Average 3 value, item CCSCC(O)C(O)C1OC(O)(C(=O)O)CC(O)C1NC(C)=O (centres unmarked) [Compound 8b]
Reply | 46.1

Ask | Record request: Average 3 value, item O=C(CF)NC1C(O)CC(O)(C(=O)O)OC1C(O)C(O)CO (centres unmarked) [Compound 6f]
Reply | 47.4

Ask | Record request: Average 3 value, item CC(=O)NC1C(O)CC(O)(C(=O)O)OC1C(O)C(O)CI (centres unmarked) [Compound 8e]
Reply | 47.3
